Species on record: Mus musculus
Assay: Compound was tested for inhibition of cantharidin-binding protein(CBP) phosphatase isolated from mouse liver.
Design: concentration or dose not given beside the values
Details: concentration not given here
Observed Property: inhibition (%)
Field format: number, assumed %, no unit text.

Record excerpt, results attached:
N#CCC1CC2OC1C(C(=O)O)C2C(=O)O (stereo not given) :: 0
CC1(C(=O)O)C2CCC(O2)C1(C)C(=O)O (stereo not given) :: 95
CCOC(=O)C1CC2OC1C(C(=O)O)C2C(=O)O (stereo not given) :: 0
CC12CCC(C)(O1)C(C(=O)O)C2C(=O)O (stereo not given) :: 0

Please examine the following record next.
// inhibition lookup, compound = O=C1OC(=O)C23CCCC12C1CCC3O1 (stereo not given) , result: 95

* * *

Experiment: Compound was tested for inhibition of specific [3H]cantharidin binding to CBP.
Set-up: species or system Mus musculus
Observed Property: IC50 (µM)
Reply numerically in µM, unit not repeated.

O=C1OC(=O)C23CCCC12C1CCC3O1 (configuration not stated) :: 4

Let's switch to this compound now.
Looking up CC1(C(=O)O)C2CCC(O2)C1(C)C(=O)O (configuration not stated) , I found its IC50 recorded as 4

* * *

Test: Compound was tested for inhibition of specific [3H]cantharidin binding to CBP: Range= 10-50
Parameters: species or system Mus musculus
Below, each of the compounds is paired with its reported pIC50 value.
pIC50 field: float, defined as -log10 of concentration (mol/L).

Below: 2 compounds and their reported pIC50.
O=C(O)[C@@H]1[C@H](C(=O)O)[C@H]2CC[C@@H]1O2 [ENDOTHALL] :: 7.30
O=C(O)C1CC2OC1C(C(=O)O)C2C(=O)O (stereo not drawn) :: 7.30

Here is the next item to consider.
GET /value?item= CC1(C(=O)O)C2CCC(O2)C1C(=O)O (stereo not drawn) &field=pIC50 returns 7.30

* * *

Assay: Compound was tested for inhibition of specific [3H]cantharidin binding to CBP: Range=4-8
Set-up: species or system Mus musculus
Observed Property: IC50 (nM)
Your answer is read as nM, so omit the unit and give the number.

Measured IC50 of CC12C(=O)OC(=O)C1(C)C1CCC2O1 (stereo unspecified) : 4

* * *

Overview of recorded pIC50 for various molecules
Target: Serine/threonine-protein phosphatase 2A 65 kDa regulatory subunit A alpha isoform (Mus musculus, UniProt Q76MZ3)
Sequence (Q76MZ3 whole entry, canonical isoform): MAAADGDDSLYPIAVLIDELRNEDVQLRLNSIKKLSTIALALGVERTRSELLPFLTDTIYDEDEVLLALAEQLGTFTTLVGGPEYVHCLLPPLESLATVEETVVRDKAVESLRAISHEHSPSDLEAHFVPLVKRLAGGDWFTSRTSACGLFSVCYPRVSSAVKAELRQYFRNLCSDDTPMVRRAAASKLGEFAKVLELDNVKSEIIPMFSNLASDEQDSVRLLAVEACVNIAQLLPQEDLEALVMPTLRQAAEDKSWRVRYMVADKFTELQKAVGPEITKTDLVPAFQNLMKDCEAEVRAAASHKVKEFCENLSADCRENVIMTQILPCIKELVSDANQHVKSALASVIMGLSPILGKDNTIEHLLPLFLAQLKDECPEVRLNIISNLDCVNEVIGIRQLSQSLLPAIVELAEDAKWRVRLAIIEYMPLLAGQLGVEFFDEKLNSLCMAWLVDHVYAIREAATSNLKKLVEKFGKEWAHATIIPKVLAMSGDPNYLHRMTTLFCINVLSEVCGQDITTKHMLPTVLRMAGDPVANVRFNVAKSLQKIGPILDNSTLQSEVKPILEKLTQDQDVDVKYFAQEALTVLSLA
Test: Compound was tested for inhibitory concentration of Protein Phosphatase 2A (PP2A).
// field semantics: pIC50 = negative decimal log of concentration (mol/L)

O=C1OC(=O)C2C3CCC(O3)C12 (centres undefined) :: 4.15
O=C(O)C1C2C=CC(O2)C1C(=O)O (centres undefined) :: 3.52
O=C1OC(=O)C2C3C=CC(O3)C12 (centres undefined) :: 4.40

Shifting focus to the molecule that follows.
Field pIC50 (entry CC12C(=O)OC(=O)C1(C)C1CCC2O1 (centres undefined) ) reads 5.10

* * *

Species on record: Mus musculus
Assay: Inhibition of Protein Phosphatase 2A (PP2A) partially purified from mouse brain
Assay type: tissue-based
Set-up: concentration or dose not given beside the values
Conditions: concentration not given here
Observed Property: inhibition (%)
// return numeric value only (unit: %, not printed)

O=C1OC(=O)C2C3CCC(O3)C12 (centres undefined) [DEMETHYL-CANTHARIDIN] :: 88.3
COC(=O)C1CC2C=CC1C2 (centres undefined) :: 30.8
O=C1OC(=O)C2CCCCC12 (centres undefined) :: 9.2

compound O=C(O)C1CC2C=CC1C2 (centres undefined) , inhibition observed: 3.8

compound O=C1OC(=O)C2CC=CCC12 (centres undefined) , inhibition observed: 24

Please fill in: inhibition reported for O=C1OC(=O)C2C3C=CC(O3)C12 (centres undefined) = 95.2

Reported inhibition for CC12C(=O)OC(=O)C1(C)C1CCC2O1 (centres undefined) was 95

Lab book: inhibition of O=C(O)C1C2C=CC(O2)C1C(=O)O (centres undefined) noted as 80.3

O=C1OC(=O)C2C3CCC(C3)C12 (stereo in doubt; 11) yielded inhibition of 13.3

Kindly note the recorded inhibition for O=C1OC(=O)[C@H]2[C@@H]1[C@H]1C=C[C@H]2C1 (stereo in doubt; 6) , which is 48.8

Reported inhibition of O=C(O)C1CC=CCC1C(=O)O (centres undefined) : 12.2

Briefly, inhibition measured for O=C1OC(=O)C2C3CCC(C3)C12 (stereo in doubt; 7) : 38.7

// sample O=C1OC(=O)[C@H]2[C@@H]1[C@H]1C=C[C@H]2C1 (stereo in doubt; 5) , its inhibition was 48.1

inhibition for O=C(O)C1C2C=CC(C2)C1C(=O)O (centres undefined) is 17.2
